ASSAY_DETAILS: Rat PK (pharmacokinetics after iv and po administration)
Format: in vivo
STUDY_CONDITIONS: male, SD, plasma, iv(2 g/kg) [sic], method says 2 mg/kg
PARAMETER: Cmax (ng/mL)
# value in ng/mL; strip the unit string

Q: Recorded Cmax of COc1cc2ncnc(Nc3ccc(OCc4ccccn4)c(Cl)c3)c2cc1NC(=O)/C=C/CN1C[C@@H]2OCCO[C@@H]2C1 , please.
A: 2770

***
Q: Recorded Cmax of COc1cc2ncnc(Nc3ccc(Cl)c(Cl)c3F)c2cc1NC(=O)/C=C/CN1C[C@@H]2OCCO[C@@H]2C1 , please.
A: 1210

Q: Recorded Cmax of CCOc1cc2ncnc(Nc3ccc(OCc4ccccn4)c(Cl)c3)c2cc1NC(=O)/C=C/CN1C[C@@H]2OCCO[C@@H]2C1 , please.
A: 2930

Q: Recorded Cmax of COCCOc1cc2ncnc(Nc3ccc(Cl)c(Cl)c3F)c2cc1NC(=O)/C=C/CN1C[C@@H]2OCCO[C@@H]2C1 , please.
A: 890

* * *

SYSTEM_UNDER_TEST: EGFR (human epidermal growth factor receptor) (Homo sapiens (Human))
Sequence (P00533 25-1210): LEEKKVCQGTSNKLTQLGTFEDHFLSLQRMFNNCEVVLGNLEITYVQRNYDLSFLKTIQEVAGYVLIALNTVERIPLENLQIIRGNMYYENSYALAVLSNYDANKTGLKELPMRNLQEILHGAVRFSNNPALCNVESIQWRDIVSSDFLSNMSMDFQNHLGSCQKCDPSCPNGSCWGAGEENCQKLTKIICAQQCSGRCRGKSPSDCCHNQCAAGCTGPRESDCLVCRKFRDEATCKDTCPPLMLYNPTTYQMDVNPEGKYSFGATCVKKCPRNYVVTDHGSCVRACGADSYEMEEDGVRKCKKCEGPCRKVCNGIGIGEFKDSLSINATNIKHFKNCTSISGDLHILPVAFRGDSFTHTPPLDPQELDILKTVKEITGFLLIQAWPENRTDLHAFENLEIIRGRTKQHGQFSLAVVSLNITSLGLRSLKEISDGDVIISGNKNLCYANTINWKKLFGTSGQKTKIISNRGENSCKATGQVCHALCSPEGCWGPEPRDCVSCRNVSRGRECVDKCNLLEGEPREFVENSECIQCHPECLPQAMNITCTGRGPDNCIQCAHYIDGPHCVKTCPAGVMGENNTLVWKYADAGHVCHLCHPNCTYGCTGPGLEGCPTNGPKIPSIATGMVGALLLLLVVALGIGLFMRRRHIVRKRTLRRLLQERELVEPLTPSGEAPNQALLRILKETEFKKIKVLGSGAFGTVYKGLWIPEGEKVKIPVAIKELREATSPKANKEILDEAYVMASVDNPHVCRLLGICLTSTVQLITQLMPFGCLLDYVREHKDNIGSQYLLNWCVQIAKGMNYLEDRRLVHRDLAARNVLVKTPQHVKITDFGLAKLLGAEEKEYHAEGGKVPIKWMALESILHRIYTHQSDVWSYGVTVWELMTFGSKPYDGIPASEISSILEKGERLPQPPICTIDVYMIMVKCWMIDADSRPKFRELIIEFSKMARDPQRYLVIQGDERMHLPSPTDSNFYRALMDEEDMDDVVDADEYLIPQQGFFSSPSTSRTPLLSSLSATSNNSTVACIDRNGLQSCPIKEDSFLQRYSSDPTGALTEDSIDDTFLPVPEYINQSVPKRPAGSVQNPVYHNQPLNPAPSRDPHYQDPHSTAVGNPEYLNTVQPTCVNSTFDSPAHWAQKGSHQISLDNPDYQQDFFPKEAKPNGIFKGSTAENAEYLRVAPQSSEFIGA
ASSAY_DETAILS: In vitro kinase inhibitory activity, EGFR
Assay type: biochemical
Under this convention, true denotes IC50 strictly below 20 nM and false denotes IC50 at or above 20 nM.

Solved cases (5 shown):
Q: Could you please tell me whether IC50 recorded for COc1cc2ncnc(Nc3ccc(Cl)c(Cl)c3F)c2cc1NC(=O)/C=C/CN1C[C@@H]2OCCO[C@@H]2C1 is less than 20 nM?
A: true

Q: Could you please tell me whether IC50 recorded for COCCOc1cc2ncnc(Nc3ccc(F)c(Cl)c3)c2cc1NC(=O)/C=C/CN1C[C@@H]2OCCO[C@@H]2C1 is less than 20 nM?
A: true

Q: Could you please tell me whether IC50 recorded for O=C(/C=C/CN1C[C@@H]2OCCO[C@@H]2C1)Nc1cc2c(Nc3ccc(F)c(Cl)c3)ncnc2cc1O[C@H]1CCOC1 is less than 20 nM?
A: true

Q: Could you please tell me whether IC50 recorded for COc1cc2ncnc(Nc3ccc(F)c(Cl)c3F)c2cc1NC(=O)/C=C/CN1C[C@@H]2OCCO[C@@H]2C1 is less than 20 nM?
A: true

Q: Could you please tell me whether IC50 recorded for CCOc1cc2ncnc(Nc3ccc(F)c(Cl)c3)c2cc1NC(=O)/C=C/CN1C[C@@H]2OCCO[C@@H]2C1 is less than 20 nM?
A: true

***
Q: Could you please tell me whether IC50 recorded for CCOc1cc2ncnc(Nc3ccc4c(cnn4Cc4cccc(F)c4)c3)c2cc1NC(=O)/C=C/CN1C[C@@H]2OCCO[C@@H]2C1 is less than 20 nM?
A: false

Q: Could you please tell me whether IC50 recorded for CCOc1cc2ncnc(Nc3ccc(OCc4ccccn4)c(Cl)c3)c2cc1NC(=O)/C=C/CN1C[C@@H]2OCCO[C@@H]2C1 is less than 20 nM?
A: true

Q: Could you please tell me whether IC50 recorded for COc1cc2ncnc(Nc3ccc(OCc4ccccn4)c(Cl)c3)c2cc1NC(=O)/C=C/CN1C[C@@H]2OCCO[C@@H]2C1 is less than 20 nM?
A: false

Q: Could you please tell me whether IC50 recorded for COc1cc2ncnc(Nc3ccc4c(cnn4Cc4cccc(F)c4)c3)c2cc1NC(=O)/C=C/CN1C[C@@H]2OCCO[C@@H]2C1 is less than 20 nM?
A: true

Q: Could you please tell me whether IC50 recorded for O=C(/C=C/CN1C[C@@H]2OCCO[C@@H]2C1)Nc1cc2c(Nc3ccc(F)c(Cl)c3)ncnc2cc1OCC(F)(F)F is less than 20 nM?
A: true

* * *

SYSTEM_UNDER_TEST: EGFR (human epidermal growth factor receptor) (Homo sapiens (Human))
ASSAY_DETAILS: In vitro kinase inhibitory activity, EGFR
Format: biochemical
PARAMETER: IC50 (nM)
# value in nM; strip the unit string

Reference set (2 entries):
Q: Item CCOc1cc2ncnc(Nc3ccc(Cl)c(Cl)c3F)c2cc1NC(=O)/C=C/CN1C[C@@H]2OCCO[C@@H]2C1 with EGFR (human epidermal growth factor receptor) (Homo sapiens (Human)) - IC50?
A: 1.2

Q: Item O=C(/C=C/CN1C[C@@H]2OCCO[C@@H]2C1)Nc1ccc2ncnc(Nc3ccc4c(cnn4Cc4cccc(F)c4)c3)c2c1 with EGFR (human epidermal growth factor receptor) (Homo sapiens (Human)) - IC50?
A: 14

# context switch: different compound, same IC50
Q: Item CCOc1cc2ncnc(Nc3ccc(OCc4cccc(F)c4)c(Cl)c3)c2cc1NC(=O)/C=C/CN1C[C@@H]2OCCO[C@@H]2C1 with EGFR (human epidermal growth factor receptor) (Homo sapiens (Human)) - IC50?
A: 31.9

* * *

ASSAY_DETAILS: Rat PK (pharmacokinetics after iv and po administration)
Type: in vivo
STUDY_CONDITIONS: male, SD, plasma, po(5 g/kg) [sic], method says 5 mg/kg
PARAMETER: AUC(0-t) (ng·h/mL)
# value in ng·h/mL; strip the unit string

Q: Recorded AUC(0-t) of CCOc1cc2ncnc(Nc3ccc(OCc4ccccn4)c(Cl)c3)c2cc1NC(=O)/C=C/CN1C[C@@H]2OCCO[C@@H]2C1 [Example 24] , please.
A: 22900

Q: Recorded AUC(0-t) of O=C(/C=C/CN1C[C@@H]2OCCO[C@@H]2C1)Nc1cc2c(Nc3ccc(OCc4ccccn4)c(Cl)c3)ncnc2cc1O[C@H]1CCOC1 [Example 25] , please.
A: 474

Q: Recorded AUC(0-t) of [2H]C([2H])([2H])Oc1cc2ncnc(Nc3ccc(F)c(Cl)c3)c2cc1NC(=O)/C=C/CN1C[C@@H]2OCCO[C@@H]2C1 [Example 20] , please.
A: 3190

***
Q: Recorded AUC(0-t) of O=C(/C=C/CN1C[C@@H]2OCCO[C@@H]2C1)Nc1cc2c(Nc3ccc(Cl)c(Cl)c3F)ncnc2cc1O[C@H]1CCOC1 [Example 34] , please.
A: 1550

Q: Recorded AUC(0-t) of CCOc1cc2ncnc(Nc3ccc4c(cnn4Cc4cccc(F)c4)c3)c2cc1NC(=O)/C=C/CN1C[C@@H]2OCCO[C@@H]2C1 [Example 28] , please.
A: 721

Q: Recorded AUC(0-t) of CCOc1cc2ncnc(Nc3ccc(Cl)c(Cl)c3F)c2cc1NC(=O)/C=C/CN1C[C@@H]2OCCO[C@@H]2C1 [Example 32] , please.
A: 6220

* * *

Documented half-life across a set of compounds
ASSAY_DETAILS: Rat PK (pharmacokinetics after iv and po administration)
Type: in vivo
STUDY_CONDITIONS: male, SD, plasma, iv(2 g/kg) [sic], method says 2 mg/kg
# value in h; strip the unit string

Reference set (5 entries):
Q: Recorded half-life of [2H]C([2H])([2H])Oc1cc2ncnc(Nc3ccc(F)c(Cl)c3)c2cc1NC(=O)/C=C/CN1C[C@@H]2OCCO[C@@H]2C1 , please.
A: 2.22

Q: Recorded half-life of CCOc1cc2ncnc(Nc3ccc(Cl)c(Cl)c3F)c2cc1NC(=O)/C=C/CN1C[C@@H]2OCCO[C@@H]2C1 , please.
A: 2.95

Q: Recorded half-life of COc1cc2ncnc(Nc3ccc(OCc4ccccn4)c(Cl)c3)c2cc1NC(=O)/C=C/CN1C[C@@H]2OCCO[C@@H]2C1 , please.
A: 3.06

Q: Recorded half-life of O=C(/C=C/CN1C[C@@H]2OCCO[C@@H]2C1)Nc1cc2c(Nc3ccc(OCc4ccccn4)c(Cl)c3)ncnc2cc1O[C@H]1CCOC1 , please.
A: 1.42

Q: Recorded half-life of O=C(/C=C/CN1C[C@@H]2OCCO[C@@H]2C1)Nc1cc2c(Nc3ccc(Cl)c(Cl)c3F)ncnc2cc1O[C@H]1CCOC1 , please.
A: 1.15

***
Q: Recorded half-life of CCOc1cc2ncnc(Nc3ccc(OCc4ccccn4)c(Cl)c3)c2cc1NC(=O)/C=C/CN1C[C@@H]2OCCO[C@@H]2C1 , please.
A: 3.59

Q: Recorded half-life of COCCOc1cc2ncnc(Nc3ccc(Cl)c(Cl)c3F)c2cc1NC(=O)/C=C/CN1C[C@@H]2OCCO[C@@H]2C1 , please.
A: 1.29

Q: Recorded half-life of COc1cc2ncnc(Nc3ccc4c(cnn4Cc4cccc(F)c4)c3)c2cc1NC(=O)/C=C/CN1C[C@@H]2OCCO[C@@H]2C1 , please.
A: 1.97

Q: Recorded half-life of COc1cc2ncnc(Nc3ccc(Cl)c(Cl)c3F)c2cc1NC(=O)/C=C/CN1C[C@@H]2OCCO[C@@H]2C1 , please.
A: 3.66

Q: Recorded half-life of CCOc1cc2ncnc(Nc3ccc4c(cnn4Cc4cccc(F)c4)c3)c2cc1NC(=O)/C=C/CN1C[C@@H]2OCCO[C@@H]2C1 , please.
A: 1.99

* * *

ASSAY_DETAILS: Rat PK (pharmacokinetics after iv and po administration)
Assay type: in vivo
STUDY_CONDITIONS: male, SD, plasma, po(5 g/kg) [sic], method says 5 mg/kg
Returns true (1) if the recorded half-life is greater than or equal to 200 min, and false (0) otherwise.

Solved cases (6 shown):
Q: Does half-life meet or surpass 200 min for COc1cc2ncnc(Nc3ccc(OCc4ccccn4)c(Cl)c3)c2cc1NC(=O)/C=C/CN1C[C@@H]2OCCO[C@@H]2C1 [Example 23] ?
A: false (0)

Q: Does half-life meet or surpass 200 min for CCOc1cc2ncnc(Nc3ccc(Cl)c(Cl)c3F)c2cc1NC(=O)/C=C/CN1C[C@@H]2OCCO[C@@H]2C1 [Example 32] ?
A: false (0)

Q: Does half-life meet or surpass 200 min for [2H]C([2H])([2H])Oc1cc2ncnc(Nc3ccc(F)c(Cl)c3)c2cc1NC(=O)/C=C/CN1C[C@@H]2OCCO[C@@H]2C1 [Example 20] ?
A: true (1)

Q: Does half-life meet or surpass 200 min for COCCOc1cc2ncnc(Nc3ccc(Cl)c(Cl)c3F)c2cc1NC(=O)/C=C/CN1C[C@@H]2OCCO[C@@H]2C1 [Example 33] ?
A: false (0)

Q: Does half-life meet or surpass 200 min for COc1cc2ncnc(Nc3ccc4c(cnn4Cc4cccc(F)c4)c3)c2cc1NC(=O)/C=C/CN1C[C@@H]2OCCO[C@@H]2C1 [Example 27] ?
A: false (0)

Q: Does half-life meet or surpass 200 min for CCOc1cc2ncnc(Nc3ccc4c(cnn4Cc4cccc(F)c4)c3)c2cc1NC(=O)/C=C/CN1C[C@@H]2OCCO[C@@H]2C1 [Example 28] ?
A: false (0)

***
Q: Does half-life meet or surpass 200 min for O=C(/C=C/CN1C[C@@H]2OCCO[C@@H]2C1)Nc1cc2c(Nc3ccc(Cl)c(Cl)c3F)ncnc2cc1O[C@H]1CCOC1 [Example 34] ?
A: false (0)

Q: Does half-life meet or surpass 200 min for CCOc1cc2ncnc(Nc3ccc(OCc4ccccn4)c(Cl)c3)c2cc1NC(=O)/C=C/CN1C[C@@H]2OCCO[C@@H]2C1 [Example 24] ?
A: true (1)

Q: Does half-life meet or surpass 200 min for O=C(/C=C/CN1C[C@@H]2OCCO[C@@H]2C1)Nc1cc2c(Nc3ccc(OCc4ccccn4)c(Cl)c3)ncnc2cc1O[C@H]1CCOC1 [Example 25] ?
A: true (1)

Q: Does half-life meet or surpass 200 min for COc1cc2ncnc(Nc3ccc(Cl)c(Cl)c3F)c2cc1NC(=O)/C=C/CN1C[C@@H]2OCCO[C@@H]2C1 [Example 31] ?
A: false (0)

Attribution: patent US9556191B2
